B1: library; a variant is named by its letters at N, in order (parent)
chain: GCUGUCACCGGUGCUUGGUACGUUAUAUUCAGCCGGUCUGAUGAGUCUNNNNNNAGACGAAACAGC

Variants of: B1
Assay: normalized RNA/DNA level with ligand (relative to sTRSVctl = 100) (log10 (% of sTRSVctl)); HEK293T overexpressing SLC46A1; ligand concentration (+) RNA-Seq: 6 mM; higher = less ribozyme self-cleavage, higher mRNA level
Details: with (6R,S)-folinic acid; ligand present: yes
In this section, each of the variants is paired with its reported normalized RNA/DNA level with ligand (log10).
Quick one: just the number, no unit, thanks!

UGUCAA: 2

Query string: Could you share which normalized RNA/DNA level with ligand (log10) value was measured for UUUCGG ?
Result string: 1.99

Query string: Please give the measured normalized RNA/DNA level with ligand (log10) for this variant: UGGGUG
Result string: 1.95

Query string: Entry UUAGCA : reported normalized RNA/DNA level with ligand (log10) = ?
Result string: 2.01

Query string: Any idea what normalized RNA/DNA level with ligand (log10) was measured for GCUGCC ?
Result string: 2.04

Query string: What normalized RNA/DNA level with ligand (log10) value was documented for this variant, CUAUCU ?
Result string: 2.06

Query string: I would be grateful if you could share the reported normalized RNA/DNA level with ligand (log10) for UCCCCG .
Result string: 2.04
